The reader will find reported pIC50 values listed item by item below.
Assay: HepG2 cytotoxicity screening (CellTiter-Glo)
Conditions: human, uninfected HepG2-A16-CD81 (EGFP) hepatocytes
pIC50: −log10 of the molar value.
readout-label: pIC50

compound="COc1cccc(-c2noc(C3CCN(Cc4cn(C)nc4C)C3)n2)c1 (stereo not shown) [UCSD-0839537]" experimental_result="< 4.60"
compound="Cc1n[nH]cc1CNC1CCN(c2cccc(C(F)(F)F)c2)CC1 [UCSD-0814169]" experimental_result="< 4.30"
compound="COc1cccc(CNc2cc(C)nc(-c3ccncc3)n2)c1OC [UCSD-0704521]" experimental_result=5.01
compound="COc1ccc(-c2cc(CNc3ncnc4c3CCNCC4)no2)cc1 [UCSD-0833048]" experimental_result="< 4.60"
compound="Cc1ccc(Sc2ccc(CN3CCC4(CCCNC4=O)C3)o2)cc1 (stereo not shown) [UCSD-0825128]" experimental_result="< 4.60"
compound="COc1cc(CNCc2ccnc(N3CCCCC3)c2)cc(OC)c1 [UCSD-0841255]" experimental_result="< 4.60"
compound="c1ccc(OCCNc2ncnc3sc4c(c23)CCNC4)cc1 [UCSD-0829760]" experimental_result="< 4.60"

----------
Test: HepG2 cytotoxicity screening (CellTiter-Glo)
Conditions: human, uninfected HepG2-A16-CD81 (EGFP) hepatocytes
pIC50: −log10 of the molar value.
Property: pIC50; scope: individual molecules
readout-label: pIC50

molecule="COc1ccc(-c2ccc(C3CNCCO3)nc2)cc1 (stereo not drawn)" readout_label=pIC50 readout_qualifier=< experimental_result=4.30
molecule=CCCc1cc(=O)[nH]c(-n2nc(C3CC3)cc2N)n1 readout_label=pIC50 readout_qualifier== experimental_result=4.69
molecule="Cn1cncc1CN1CCCC1c1cncc(Oc2ccc(Cl)cc2)n1 (stereo not drawn)" readout_label=pIC50 readout_qualifier=< experimental_result=4.60
molecule=COc1ccccc1C1CCN(c2ccc3cc[nH]c3n2)CC1 readout_label=pIC50 readout_qualifier== experimental_result=4.50
molecule=COc1c(CNCc2ccc(C(=O)N(C)C(C)C)cc2)c(C)nn1C readout_label=pIC50 readout_qualifier== experimental_result=4.78
molecule=O=C([C@H]1C[C@@H]2CCN(c3cccc(F)c3)C[C@H]2O1)N1CCCC1 readout_label=pIC50 readout_qualifier=< experimental_result=4.60

----------
Test system: P. falciparum Dd2 (PfLuc) line expressing firefly luciferase, asexual blood stage
Assay: microbe, parasite or virus in culture
Format: cell-based, Plasmodium falciparum
Details: Plasmodium falciparum, DD2; 11-pt dose response, 96hr; read-out: CDD P. falciparum Luciferase ABS 11-pt Reconfirmation Dose Response (96hr): Maximum inhibition (%)
readout-label: Emax (%)

compound="CC(NCCc1nccn1Cc1ccccc1)c1ccsc1 (centres unmarked)" output_unit=% experimental_result=88.3
compound=O=C(CC1CCCC1)NCCNCc1cccc2c1OCCO2 output_unit=% experimental_result=89.2
compound="CCC(C)(C)n1nnnc1C(c1cccs1)N1CCc2ccccc2C1 (centres unmarked)" output_unit=% experimental_result=93.7
compound=Clc1ccccc1C1(c2ccnc(CC3CC3)n2)CCNCC1 output_unit=% experimental_result=98
compound=c1ccc(-c2nc3c(c(NCc4n[nH]c5c4CCC5)n2)CCNC3)cc1 output_unit=% experimental_result=99.5
compound=CN1CCC(N(Cc2ccco2)S(=O)(=O)c2ccc(Br)cc2Cl)CC1 output_unit=% experimental_result=81.7
compound="CC(C)n1ccnc1C1CCCN(c2ccnc3ccccc23)C1 (centres unmarked)" output_unit=% experimental_result=99.7
compound="CCN1CCC2(CC1)CC(NCc1cccc(C)n1)c1ccccc1O2 (centres unmarked)" output_unit=% experimental_result=88.1
compound=CC1(C)CC(N(Cc2cccnc2)Cc2cccc(F)c2)CC(C)(C)N1 output_unit=% experimental_result=98.4
compound=Cc1ccnc(NC(=O)c2[nH]nc(C(C)C)c2Br)c1 output_unit=% experimental_result=97
compound="Clc1ccc(-c2ccc(C3CNCCO3)nc2)cc1 (centres unmarked)" output_unit=% experimental_result=99.3
compound="CC(C)C(CNCc1cccc2c1OCO2)N1CCOCC1 (centres unmarked)" output_unit=% experimental_result=85.2
compound="OCC1CCCCN1c1ccc(-c2nc(-c3ccccc3F)no2)cn1 (centres unmarked)" output_unit=% experimental_result=89.1
compound=c1ccc(Sc2ccc3c(c2)OCO3)c(CNC2=NCCN2)c1 output_unit=% experimental_result=95.1
compound="CC(C)Nc1cc(-c2c[nH]nc2C2CCN(C(=O)C3CC3)C2)ccn1 (centres unmarked)" output_unit=% experimental_result=98.4
compound="c1ccc(N2CCCC3(CCN(Cc4ccsc4)C3)C2)nc1 (centres unmarked)" output_unit=% experimental_result=86.9
compound=Brc1ccc(C2(CNCc3cc[nH]c3)CCOCC2)cc1 output_unit=% experimental_result=99.6
compound=CN(Cc1ccsc1)c1nc(-c2ccccn2)nc2c1CCNCC2 output_unit=% experimental_result=98.7
compound=COc1ccc(-c2c(C)nn3c(=N)c(C#N)n[nH]c23)cc1OC output_unit=% experimental_result=98.5
compound="Nc1cc(-c2c[nH]nc2C2CCCN2CCCc2ccccc2)ccn1 (centres unmarked)" output_unit=% experimental_result=100
compound=CN(Cc1cc(Cl)cc2cccnc12)CC1CCN(CCO)CC1 output_unit=% experimental_result=100
compound=Cc1n[nH]cc1CNC1(c2ccc(F)cc2)CCCC1 output_unit=% experimental_result=87
compound="CC1CCCCN1C(=O)c1coc(COc2cccc3cnccc23)n1 (centres unmarked)" output_unit=% experimental_result=99.8
compound=CN[C@@H]1CCC[C@@H](Oc2ccccc2Oc2ccc(C)cc2)[C@@H]1O output_unit=% experimental_result=99.7
compound="CCC(CC)(CN)NC(C)c1ccccc1 (centres unmarked)" output_unit=% experimental_result=87.7
compound="CCNc1ccnc(CN2CCCC2C(=O)Nc2nccs2)c1 (centres unmarked)" output_unit=% experimental_result=99.6
